Here the recorded Tm is given for each entry.
Assay: melting temperature; fluorescence melt of hairpins on a sequencing array, two-state fit, raised by 9.35 °C to match UV melts
Details: sodium 0.088 M
// note: answer is a bare numeric in °C

Take a look at these entries with their results.
GTACTGCGAAAGCATAC (((.(((....))))))    36.6
GTCAGAGGAAACTTTGAC ((((.((....)).))))    37.8
GTGGGTGGAAACATCCAC ((((.((....)).))))    53.5
GGCCACGAAAGTGACGCC ((((((....)))..)))    52.1
GATTGCCGAAAGGCATC (((.(((....))))))    44.6

Field Tm (entry GATCTTTCGCAAGATC ((((((....)))))) ) reads 43.5

# Tm of GCCGGACCGAAAGGTGGC (((..(((....)))))) = 53.4

* * *

Assay: melting temperature; fluorescence melt of hairpins on a sequencing array, two-state fit, raised by 9.35 °C to match UV melts
Conditions: sodium 0.088 M
recorded metric: Tm (°C)
All answers are understood in °C, so give the number only.

Here is how some sequences turned out for Tm.
GAGAACGAAAGTTGTCTC ((((((....)))..)))    43.5
GTCGATGGAAACATCAAC ((.((((....)))).))    34.7
GATCCAACCGTGGATC ((((((....))))))    49.8
GGATGGGGAAACCCGTCC (((.(((....))).)))    54.2
GCTTAAGGAAACTTAAGC (((((((....)))))))    53.2

Now for a further sequence.
Sure, the documented Tm for GTCATCGAAAGATGTGAC ((((((....)))..))) is 35.7

* * *

Assay: folding enthalpy; higher = less favourable; fluorescence melt of hairpins on a sequencing array, two-state fit
Conditions: sodium 0.088 M
Measured folding enthalpy by item
Express it in kcal/mol; write the number only.

GATCTAAGTTTAGATC ((((((....))))))    -30
GTAAAACGAAAGTTGTAC (((.(((....))).)))    -20.4
GTGAGCGAAAGCTTCAC ((((((....))).)))    -19.1
GAAGCCGCGAAAGCGTTC (((..(((....))))))    -11
GGCACCGGAAACAGCGCC (((.(.(....).).)))    -22.1

Proceeding to the next sequence to report its folding enthalpy.
Memo: GATCGACTAGTCGATC ((((((....)))))) , reported folding enthalpy: -45.6

* * *

Assay: melting temperature; fluorescence melt of hairpins on a sequencing array, two-state fit, raised by 9.35 °C to match UV melts
Conditions: sodium 0.088 M
Measured Tm, listed per entry for reference.

Reference set, count: 6
GATCCCGTGCGGGATC ((((((....))))))    66.3 °C
GGAATCGGAAACGGTTTC (.((.((....)).)).)    32.4 °C
GGTTACGAAAGTAGCACC ((((((....)))..)))    31.7 °C
GCAGGAGCGAAAGCTTGC (((..(((....))))))    44.2 °C
GTCTCGCGAAAGCGTGAC (((.(((....))).)))    60.7 °C
GACGCCGAAAGGCTGGTC ((((((....)))..)))    48 °C

The reported value for GCGTTGGGAAACTGACGC ((((..(....)..)))) in terms of Tm is 49.7 °C

* * *

Test: melting temperature; fluorescence melt of hairpins on a sequencing array, two-state fit, raised by 9.35 °C to match UV melts
Conditions: sodium 0.088 M
Tm values, listed per item

GAAAAGGCGAAAGCCTTC (((..(((....))))))    38.9 °C

The value of Tm measured for the sequence GATCCCCGTTGGGATC ((((((....)))))) turned out to be 62.2 °C

For this sequence ( GATCCGACCTCGGATC ((((((....)))))) ), measured Tm is 59.1 °C

* * *

Experiment: folding enthalpy; higher = less favourable; fluorescence melt of hairpins on a sequencing array, two-state fit
Conditions: sodium 0.088 M
recorded metric: folding enthalpy (kcal/mol)
Write the answer as a number in kcal/mol, unit excluded.

Some sequences with known folding enthalpy results, for comparison:
GTTTTCTCGAAAGAGAAC (((..(((....))))))    -15.3
CGCTCGGAAACGATGGCG ((((((....)))..)))    -31.2

The reported folding enthalpy of the sequence GCGCCGCGAAAGCTGAGC ((.(.((....)).).)) was -20

Documented folding enthalpy of CGTTCCGGAAACGGGACG (((.(((....))).))) : -42.9

Sample TTGTCGAAAGACAA (((((....))))) ; folding enthalpy observed: -18.1

Noted for GTCGTCGGAAACGACAAC ((.((((....)))).)) : its folding enthalpy reads -13

Lab book: folding enthalpy of GCCCCTGGAAACAAGGGC ((((.((....)).)))) noted as -28.8

folding enthalpy recorded for this sequence, GAAAACGAAAGTTGCTTC ((((((....)))..))) , is -19.8

Measured folding enthalpy, GATCTTGGCTAAGATC ((((((....)))))) : -45.1

# folding enthalpy (sequence: GCTTCAGGAAACTAAAGC ((((.((....)).)))) ) is -26.3

Field folding enthalpy (entry GCGTGGCGAAAGCTAAGC ((.(.((....)).).)) ) reads -23.3

Notebook: GGGTCCGAAAGGAGCCCC ((((((....)))..))) , folding enthalpy read as -11

Form: sequence = GCACCAACGAAAGTTTGC (((..(((....)))))) ; folding enthalpy = -13.5

Short answer for GTCTGCGAAAGCACTGAC ((((((....)))..))) : folding enthalpy was -15.1

Input GCCTTACGAAAGTACGGC (((.(((....))).))) . Output folding enthalpy: -46.5

Summary for this sequence, GCACTCGGAAACGAATGC (((.(((....))).))) : folding enthalpy is -33.5

Record GGAAAGTCGAAAGACTCC (((..(((....)))))) . Reported folding enthalpy: -15.6

Recorded result, GAGCGGAAACGCTC (((((....))))) , folding enthalpy: -27.4

Query GATCTGTGACAGATC ((((((...)))))) yields folding enthalpy of -31.5

Looking up GAAGCTGGAAACAGTTTC (((.(((....))).))) , I found its folding enthalpy recorded as -27.1

Record GGTGTTGGAAACAGCATC (.((.((....)).)).) . Reported folding enthalpy: -17.7

Per the records, this sequence ( GGGGACGAAAGTCAACCC ((((((....)))..))) ) has folding enthalpy equal to -17.6

Value of folding enthalpy reported for the sequence GTCGCCGAAAGGCCGGAC ((((((....)))..))) is -13.1

The measured folding enthalpy associated with GTCGAGGGAAACCTCGGC (.(((((....))))).) reads -35.8

GATCCAACTTGGATC ((((((...)))))) has a reported folding enthalpy of -29

Entry under test: GTAAGGGGAAACCCTTAC (((((((....))))))) . Its folding enthalpy was -42.4

Lookup result for GCGTTATAACGC ((((....)))) ; measured folding enthalpy: -30.4

Lookup result for GATCGTATGGACGATC ((((((....)))))) ; measured folding enthalpy: -27

Recorded folding enthalpy (sequence GGACTGCGAAAGCATTCC (((.(((....))).))) ): -29.8

GCGAGCGAAAGCTTACGC ((((((....)))..))) yielded folding enthalpy of -20.6

// folding enthalpy value for GGGAAAGGAAACTTTCCC (((((((....))))))) : -47

Value of measured folding enthalpy for the entry GCGTGTAGACGC ((((....)))) : -21.4

* * *

Experiment: melting temperature; fluorescence melt of hairpins on a sequencing array, two-state fit, raised by 9.35 °C to match UV melts
Settings: sodium 0.088 M
Categories are assigned from the measured Tm using these intervals: label 0 = under 40 °C, label 1 = from 40 °C up to 50 °C, label 2 = 50 °C and over

GATCTCTCGGAGATC ((((((...))))))    label 2

Given GGCATACGAAAGTAAGCC (((.(((....))).))) , name the class its Tm places it in.
label 2

Textbook exercise: identify the category of the sequence given here, GATCGATAAGTCGATC ((((((....)))))) , according to its measured value.
label 2

Bin? GTCTCCGGAAACGGAGGC (.(((((....))))).)
label 2

Given GGCTCAGGAAACTGAGTC (.(((((....))))).) , name the class its Tm places it in.
label 2

Which bin should I file GTTTACGAAAGTATAAC ((((((....))).))) under?
label 0

Using the reported Tm, which band applies to GATCCAATAGTGGATC ((((((....)))))) ?
label 1

Lab note: sort GGGTGTGGAAACACATCC ((.((((....)))).)) into the matching Tm band.
label 2

These measurements were taken from the array DNA melting data of Ke et al. (doi:10.1101/2024.01.08.574731).
